Molecular target: Estrogen receptor (Homo sapiens)
Assay: qHTS assay for small molecule antagonists of estrogen receptor alpha signaling (AID 588513)
Settings: ER-alpha-UAS-bla HEK293, beta-lactamase ratio, antagonist mode; series mostly up to 76.9 µM
The source made the active and inactive calls. Calls come from the whole dose curve; as a rule, active = well fitted curve in the direction sought with a large enough effect in the signal ratio, with a control signal flat (not every such curve was filed as active); inconclusive = small, poorly fitted or top-dose-only effect, or effect the other way, or a change in a side signal; inactive = no such curve, though single readings can be large or run the other way; the % refers to the signal ratio.
One label from this list, please: active, inactive

Check out these entries, answers already filled in.
C1CCC(NC2CCCCC2)CC1
inactive
CC(=O)[O][Hg][c]1ccccc1
active
CCOCCOC(C)=O
inactive
O=S(=O)(c1ccc(Cl)cc1)c1ccc(Cl)cc1
inactive
O=[N+]([O-])c1c(Cl)c(Cl)cc(Cl)c1Cl
inactive
O=C(O)COc1nc(Cl)c(Cl)cc1Cl
inactive

Status in this test for `O=C(Nc1ccccc1-c1ccc(Cl)cc1)c1cccnc1Cl` ?
inactive

Status in this test for C=CCC1=C(C)C(OC(=O)C2C(C=C(C)C)C2(C)C)CC1=O (centres undefined) ?
inactive

Status in this test for `O=C(O)C(Cl)Cl` ?
inactive

###

Test: qHTS of pediatric cancer cell lines to identify multiple opportunities for drug repurposing: Confirmatory screen for U-2 OS cells (AID 1347122); note: nearly all actives have a fitted effect of over 65% in size
Details: U-2 OS osteosarcoma cell viability; series mostly up to 45.9 µM
Records with an inconclusive call do not appear. The source made the active and inactive calls. Calls come from the whole dose curve; as a rule, active = well fitted cell-killing curve with a large enough effect; inconclusive = small, poorly fitted or top-dose-only effect; inactive = no such curve, though single readings can be large or run the other way.
One label from this list, please: true (1) = active, false (0) = inactive

Check out these entries, answers already filled in.
C[C@]12Cc3cn[nH]c3C[C@@H]1CC[C@@H]1[C@H]2CC[C@@]2(C)[C@H]1CC[C@]2(C)O
false (0)
CO[C@H]1CCC(O[C@H]2C[C@H]([C@]3(C)CC[C@]4(C[C@H](O)[C@@H](C)[C@@H]([C@@H](C)C=C(C)C(=O)[C@H](C)C[C@H](C)C(=O)O)O4)O3)O[C@]3(O[C@@H]([C@H]4O[C@@](O)(CO)[C@H](C)C[C@H]4C)C[C@H]3C)[C@H]2C)O[C@H]1C (stereo partly drawn)
true (1)

Okay, now this molecule:
Status in this test for Cc1c(N)nc([C@H](CC(N)=O)NC[C@@H](N)C(N)=O)nc1C(=O)N[C@H](C(=O)N[C@@H](C)[C@H](O)[C@@H](C)C(=O)N[C@@H](C(=O)NCCc1nc(-c2nc(C(=O)NCCC[S+](C)C)cs2)cs1)[C@@H](C)O)C(O[C@H]1O[C@H](CO)[C@H](O)[C@@H](O)[C@@H]1O[C@H]1O[C@H](CO)[C@@H](O)[C@H](OC(N)=O)[C@H]1O)c1cnc[nH]1 (stereo partly drawn) ?
false (0)

###

System: KB-3-1
Test: Cytotoxic Profiling of Annotated Libraries Using Quantitative High-Throughput Screening (AID 1296008); note: nearly all actives have a fitted effect of over 60% in size
Conditions: Five cell lines viability, CellTiter-Glo ATP luminescence, 48-72 h
Inconclusive results are not listed. The source made the active and inactive calls. Calls come from the whole dose curve; as a rule, active = well fitted inhibition curve with a large enough effect; inconclusive = small, poorly fitted or top-dose-only effect; inactive = flat fitted curve, though single readings scatter.
One label from this list, please: active, inactive

Check out these entries, answers already filled in.
CCC(=O)OC1CCC2C3CCC4=CC(=O)CC[C@@]4(C)C3CC[C@]12C (stereo partly drawn)
inactive
CC(=Cc1csc(C)n1)[C@@H]1C[C@H]2O[C@]2(C)CCC[C@H](C)[C@@H](O)[C@@H](C)C(=O)C(C)(C)[C@@H](O)CC(=O)O1
active
O=c1[nH]c2ccc(Cl)cc2c(N[C@@H]2CN3CCC2CC3)c1-c1nc2ccccc2[nH]1
active

Status in this test for `CC(C)(O)C=CC(=O)[C@](C)(O)[C@H]1[C@H](O)C[C@]2(C)[C@@H]3CC=C4[C@@H](C=C(O)C(=O)C4(C)C)[C@]3(C)C(=O)C[C@@]12C` ?
active

Status in this test for `O=c1[nH]c2ccccc2n1C1CCN(Cc2ccc(-c3[nH]c4cc5ncnc5cc4nc3-c3ccccc3)cc2)CC1` ?
inactive

Status in this test for `CCN1CCN(C(=O)Cc2ccc(Nc3ncc(F)c(Nc4ccc(C(=O)Nc5ccccc5Cl)cc4)n3)cc2)CC1` ?
active

Status in this test for `CC(=O)O[C@@]12CO[C@H]1C[C@H](O)[C@@]1(C)C(=O)[C@H](O)C3=C(C)[C@@H](O)C[C@@](O)([C@@H](OC(=O)c4ccccc4)[C@@H]21)C3(C)C` ?
active

Status in this test for `Cc1[nH]nc2ccc(-c3cncc(OC[C@@H](N)Cc4c[nH]c5ccccc45)c3)cc12` ?
active

###

Target: Papain (Carica papaya) (UniProt P00784)
Sequence (P00784 whole entry, looked up): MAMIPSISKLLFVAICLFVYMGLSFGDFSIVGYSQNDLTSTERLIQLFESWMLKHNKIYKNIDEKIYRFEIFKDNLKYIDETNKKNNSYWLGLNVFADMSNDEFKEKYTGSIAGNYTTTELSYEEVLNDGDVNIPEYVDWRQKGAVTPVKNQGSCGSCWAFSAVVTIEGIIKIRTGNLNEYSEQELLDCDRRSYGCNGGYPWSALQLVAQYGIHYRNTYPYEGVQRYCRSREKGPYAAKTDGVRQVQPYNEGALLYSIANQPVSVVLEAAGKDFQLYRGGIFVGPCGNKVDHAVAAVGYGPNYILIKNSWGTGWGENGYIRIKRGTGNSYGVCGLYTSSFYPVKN
Assay: Primary qHTS assay for inhibitors of the protease papain (AID 1645873);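 note: papain turnover of Z-FR-AMC read as the AMC fluorescence gain over 10 min; % is set by controls: 0 for no effect and ±100 for the full control effect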
Conditions: papain Z-FR-AMC cleavage, AMC fluorescence; series mostly up to 49.8 µM
Results filed as inconclusive are left out. The source made the active and inactive calls. Calls follow the shape of the dose curve; as a rule, active = well fitted inhibition curve with a large enough effect; inconclusive = small, poorly fitted or top-dose-only effect; inactive = no such curve, though single readings can be large or run the other way.
quantity-name: outcome

COc1ccc2c(c[n+](C)c3c4cc5c(cc4ccc23)OCO5)c1OC
inactive
S=C(NC1CCCCC1)N1CCC(c2cnc[nH]2)CC1
inactive
CCCN1CCC[C@H](c2cccc(O)c2)C1
inactive

###

Assay: Cell Viability - LYMP2-012 (AID 982);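 note: cellular ATP by luciferase luminescence where a drop means cytotoxicity; cells exposed to compound for one day before reading; nearly all actives have a fitted effect of over 55% in size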
Settings: LYMP2-012 lymphoblastoid cell viability qHTS; series mostly up to 92.2 µM
Inconclusive results are not listed. Activity calls are given as the source filed them. Calls follow the shape of the dose curve; as a rule, active = well fitted cell-killing curve with a large enough effect; inconclusive = small, poorly fitted or top-dose-only effect; inactive = flat fitted curve, though single readings scatter.
One label from this list, please: label 1 for active, label 0 for inactive

Check out these entries, answers already filled in.
CCOCCOC(C)=O
label 0
Nc1ccc(Sc2ccc(N)cc2)cc1
label 0
O=[N+]([O-])c1c(Cl)c(Cl)cc(Cl)c1Cl
label 0
CCCCC(CC)COC(=O)c1ccccc1C(=O)OCC(CC)CCCC (stereo not drawn)
label 0
Nc1ccc(Cl)cc1
label 0
CC(=O)[O][Hg][c]1ccccc1
label 1
OCCCBr
label 0

Okay, now this molecule:
Status in this test for `CN(C)NC(=O)CCC(=O)O` ?
label 0

###

Assay: qHTS for Inhibitors of the Functional Ribonucleoprotein Complex (vRNP) of Lassa (LASV) Arenavirus: LASV Primary Screen - GLuc reporter signal (AID 1347082); note: % is set by controls: 0 for no effect and ±100 for the full control effect; nearly all actives have a fitted effect of over 60% in size
Conditions: LASV minigenome vRNP, Gaussia luciferase reporter; series mostly up to 57.5 µM
Records with an inconclusive call do not appear. The source made the active and inactive calls. The call rests on the fitted dose curve; tested in HEK293 reporter line.
One label from this list, please: t (active), f (inactive)

Status in this test for `CC(C)(C)c1cc(C=C(C#N)C#N)cc(Br)c1O` ?
f

Status in this test for `CC(=Cc1csc(C)n1)[C@@H]1C[C@H]2O[C@@H]2CCC[C@H](C)[C@@H](O)[C@@H](C)C(=O)C(C)(C)[C@@H](O)CC(=O)O1` ?
f

Status in this test for O=C1CCCC2=C1C(c1[nH]ncc1Cl)N=C(Nc1nc3ccccc3o1)N2 (configuration not stated) ?
f

Status in this test for `O=C(O)c1cc(Oc2ccc(C(F)(F)F)cc2Cl)ccc1[N+](=O)[O-]` ?
f

Status in this test for `CCCCn1c(=O)n(Cc2ccccc2F)c(=O)c2[nH]c(Cc3ccc(NC(C)=O)cc3)nc21` ?
f

Status in this test for `[O-][n+]1cccc(/C(Cl)=N/OC[C@@H](O)CN2CCCCC2)c1` ?
f

###

Test: Cell Viability - LYMP2-010 (AID 981);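 note: cells exposed to compound for 24 hours at 37 °C; % is set by controls: 0 for no effect and ±100 for the full control effect; nearly all actives have a fitted effect of over 55% in size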
Conditions: LYMP2-010 lymphoblastoid cell viability, qHTS; series mostly up to 92.2 µM
Results filed as inconclusive are left out. Calls of active or inactive are those of the source. The call rests on the fitted dose curve; in most records, active means well fitted cell-killing curve with a large enough effect; inconclusive means small, poorly fitted or top-dose-only effect; inactive means flat fitted curve, though single readings scatter.
One label from this list, please: active, inactive

Cc1cc(O)ccc1Cl
inactive
c1cc2ccc3cccc4ccc(c1)c2c34
inactive
C1CCC(NC2CCCCC2)CC1
inactive
CCCCOC(=O)c1ccccc1C(=O)OCc1ccccc1
inactive

Okay, now this compound:
Status in this test for `CCCCCCCCc1ccc(O)cc1` ?
inactive

###

Test system: KB-3-1
Test: Cytotoxic Profiling of Annotated Libraries Using Quantitative High-Throughput Screening (AID 1296008); note: nearly all actives have a fitted effect of over 60% in size
Conditions: Five cell lines viability, CellTiter-Glo ATP luminescence, 48-72 h
Records with an inconclusive call do not appear. Calls of active or inactive are those of the source. Calls come from the whole dose curve; as a rule, active = well fitted inhibition curve with a large enough effect; inconclusive = small, poorly fitted or top-dose-only effect; inactive = flat fitted curve, though single readings scatter.
One label from this list, please: active, inactive

Check out these entries, answers already filled in.
CC(C)N(CCNC(=O)CN1CCCC1=O)C(C)C
inactive
CC(C)[C@]12O[C@@H]1[C@@H]1O[C@]13[C@]1(O[C@H]1C[C@@H]1C4=C(CC[C@@]13C)C(=O)OC4)[C@H]2O
active
CC1=C(O)C(=O)C=C2C1=CC=C1[C@@]2(C)CC[C@@]2(C)[C@@H]3C[C@](C)(C(=O)O)CC[C@]3(C)CC[C@]12C
active

Status in this test for `O=C(N[C@H]1CN2CCC1CC2)c1ccc(Cl)cc1` ?
inactive

Status in this test for `C[C@@H]1[C@H](O)[C@@H](C)C=CC=CCCC=CC=CC=CC=C[C@H](O[C@H]2O[C@@H](C)[C@H](O)[C@@H](N)[C@@H]2O)CC2O[C@](O)(C[C@@H](O)[C@H](O)CC[C@@H](O)C[C@@H](O)C[C@@H](O)CC(=O)O[C@H]1C)C[C@H](O)[C@H]2C(=O)O` ?
inactive

Status in this test for `COC1=CC(C)=C[C@@H](C)[C@@H](O)[C@@H](C)CC(C)=CC=C[C@H](OC)[C@H]([C@@H](C)[C@@H](O)[C@H](C)[C@@]2(O)C[C@@H](O)[C@H](C)[C@@H](C(C)C)O2)OC1=O` ?
active

Status in this test for `Oc1ccc2c3c1O[C@H]1c4[nH]c5c(c4C[C@@]4(O)[C@@H](C2)N(CC2CC2)CC[C@]314)C[C@@]1(O)[C@H]2Cc3ccc(O)c4c3[C@@]1(CCN2CC1CC1)[C@H]5O4` ?
inactive

Status in this test for CC(C)(C)[C@]1(O)C[C@@H]2OC(=O)C[C@@]23C(=O)O[C@@H]2OC(=O)[C@H](O)C213 (stereo partly drawn) ?
inactive

Status in this test for C[C@H]1CCCC=CC2C[C@H](O)C[C@@H]2[C@H](O)C=CC(=O)O1 (stereo partly drawn) ?
active
